System: M14 melanoma
experiment-summary: NCI-60 one-dose screen, 48 h
details: 10 µM unless noted
The panel holds about 83,000 compounds, 20% with a hit somewhere; the sample as a whole holds those more often. Active and inactive are the calls of the source. Rule for the calls: active = growth percent below 10; inactive = the rest.
Outcome field: choose from label 1 for active, label 0 for inactive

Below, 3 compounds whose answers are already recorded.
INSERT INTO results (compound, class_assignment) VALUES
  ('CC(=O)OC1/C=C\CC/C=C\C1 (configuration not stated)', 'label 0'),
  ('COc1cc(OC)c(NC(=O)n2ncc3cc(Nc4ncnc5ccccc45)ccc32)cc1Cl', 'label 0'),
  ('COc1nc(OC)nc(-c2cc(C(=O)c3ccc(Br)cc3)n3cc(C)cc(C)c23)n1', 'label 0');

Please indicate how the test categorized C=CCNC(=S)NNc1ccc([N+](=O)[O-])cn1 .
label 0

Please indicate how the test categorized O=C(O)COc1ccc([N+](=O)[O-])cc1Cl .
label 0

Please indicate how the test categorized Oc1ccc2ccccc2c1/C=N\Nc1ccccn1 .
label 1

---

Test system: EKVX NSCLC
experiment-summary: NCI-60 one-dose screen, 48 h
details: 10 µM
Procedure: Growth inhibition of the EKVX human Non-Small Cell Lung tumor cell line is measured as a screen for anti-cancer activity. Cells are grown in 96 well plates and exposed to the test compound for 48 hours. Compounds are tested at a single concentration, which is 10^-5 M for most compounds. The reported endpoint is percent growth (GI% or GIPRCNT), where numbers from 0 - 100% represent growth inhibition, and numbers from -100% - 0 represent cell death. […]
This is part of a sample that, as a whole, favours compounds with a hit. Of some 83,000 tested, about 20% had one in any assay. Calls of active or inactive are those of the source. Rule for the calls: active = growth percent below 10; inactive = the rest.
Outcome field: choose from 1 (active), -1 (inactive)

INSERT INTO results (compound, measured_target, class_assignment) VALUES
  ('Cc1cc2c(-c3nc4ccccc4n3C)c(O)c(O)cc2c(O)c1-c1c(C)cc2c(-c3nc4ccccc4n3C)c(O)c(O)cc2c1O', 'EKVX NSCLC', -1),
  ('O=C1c2cc([N+](=O)[O-])ccc2-c2cc(Cl)c(NC(=O)C(F)(F)F)cc21', 'EKVX NSCLC', -1),
  ('O=c1c2c(c3ccccc3n1-c1ccccc1)NC(=S)NC2c1ccccc1 (configuration not stated)', 'EKVX NSCLC', -1),
  ('CC(C)(C)c1ccc([I+]c2ccc(C(C)(C)C)cc2)cc1', 'EKVX NSCLC', -1),
  ('CCCCN(CCCC)CCCNc1c2c(nc3ccc(Cl)cc13)CCCC2', 'EKVX NSCLC', -1);

Please indicate how the test categorized O=C(Nn1cnc2ccccc21)N1CCCC1 .
-1

Please indicate how the test categorized COc1ccc(/C(=C(\c2ccccc2)[N+](=O)[O-])c2ccc(OCCN3CCCC3)cc2)cc1 .
-1

Please indicate how the test categorized CC(O)C(N)=O (configuration not stated) .
-1

Please indicate how the test categorized COc1cc(-c2nc(/C=C3/C(=O)Nc4ccccc43)c3ccccn23)cc(OC)c1OC .
-1

Please indicate how the test categorized C=CCNC(=S)NNc1ccc([N+](=O)[O-])cn1 .
-1

Please indicate how the test categorized CCCCCCCCCCCCCCCCCC1=NCCN1CS(=O)(=O)O .
-1

Please indicate how the test categorized Cc1ccc2c(c1)C(=O)CCS2 .
-1

Please indicate how the test categorized [2H]c1nc(=Nc2cc(NC(=O)C=C)c(N(C)CCN(C)C)cc2OC)[nH]c(-c2cn(C([2H])([2H])[2H])c3ccccc23)c1[2H] .
-1

Please indicate how the test categorized CCCC(C)c1cc(Cc2cc(Cl)cc(Cl)c2O)c(O)c(Cc2cc(Cl)cc(Cl)c2O)c1 (configuration not stated) .
1

Please indicate how the test categorized CCC1(CC)C(OC)NC(Br)=C(C#N)C1(C#N)C(N)=O (configuration not stated) .
-1

Please indicate how the test categorized COc1cc(CNC(=O)CCCC/C=C/C(C)C)ccc1OCc1nnc(Nc2ccccc2F)o1 .
-1
